Readout kind: melting point

INSERT INTO results (compound, readout_kind, result) VALUES
  ('CC(CCC1CCN(Cc2ccc3c(c2)Nc2ccncc2S3)CC1)C(=O)O (stereo not shown)', 'melting point', '210 to 215 °C'),
  ('CC/C(=C\c1ncn(Cc2ccc3c(c2)Nc2nccnc2S3)c1C)C(=O)O', 'melting point', '> 288 °C (dec.)'),
  ('COc1cc2c(cc1CN1CCC(CCC(C)C(=O)O)CC1)Nc1nccnc1S2 (stereo not shown)', 'melting point', '155 to 160 °C'),
  ('CCCCC(Sc1ncnc2c1ncn2Cc1ccc2c(c1)Nc1nccnc1S2)C(=O)O (stereo not shown)', 'melting point', '110 to 120 °C (dec.)'),
  ('CN(C)c1ccc(NCc2ccc3c(c2)Nc2nccnc2S3)cn1', 'melting point', '244 to 247 °C'),
  ('C/C(=C\CC1CCN(Cc2ccc3c(c2)Nc2nccnc2S3)CC1)C(=O)O', 'melting point', '91 to 93 °C'),
  ('O=C(O)C(F)=C1C2CCCC1CN(Cc1ccc3c(c1)Nc1nccnc1S3)C2', 'melting point', '223 to 225 °C (dec.)'),
  ('COc1ccc(NCc2ccc3c(c2)Nc2nccnc2S3)c(OC)n1', 'melting point', '160 to 164 °C'),
  ('Cl.O=C(O)Cc1ccc(NCc2ccc3c(c2)Nc2nccnc2S3)cc1', 'melting point', '252 to 256 °C'),
  ('O=C(O)CC(=O)NC1CCN(Cc2ccc3c(c2)Nc2nccnc2S3)CC1', 'melting point', '149 to 151 °C'),
  ('CS(=O)(=O)N1CCCN(Cc2ccc3c(c2)Nc2nccnc2S3)CC1', 'melting point', '158 to 160 °C'),
  ('N/C(Cc1ccc2c(c1)Nc1nccnc1S2)=N\S(=O)(=O)c1ccccc1', 'melting point', '206 to 207 °C'),
  ('CC(C)(CC(=O)O)C1CCN(Cc2ccc3c(c2)Nc2nccnc2S3)CC1', 'melting point', '272 to 275 °C'),
  ('CN1c2ccc(/C=C/C(=O)O)cc2Nc2nccnc21', 'melting point', '275 °C'),
  ('O=C(CCCC1CCN(Cc2ccc3c(c2)Nc2nccnc2S3)CC1)Nc1nnn[nH]1', 'melting point', '190 to 191 °C'),
  ('CN1c2ccc(C#Cc3ccccc3)cc2Nc2nccnc21', 'melting point', '245 to 247 °C'),
  ('CC(C)(C)C1CC2CN(Cc3ccc4c(c3)Nc3nccnc3S4)CC(C1)C2CC(=O)O (stereo not shown)', 'melting point', '138 to 140 °C'),
  ('CN(C)/C=N/Cc1ccc2c(c1)Nc1nccnc1S2', 'melting point', '218 to 219 °C'),
  ('O=C(O)C12CCCC(CN(Cc3ccc4c(c3)Nc3nccnc3S4)C1)C2 (stereo not shown)', 'melting point', '186 to 188 °C'),
  ('CC/C(=C\c1c(C)ncn1Cc1ccc2c(c1)Nc1nccnc1S2)C(=O)O', 'melting point', '172 °C'),
  ('O=C(c1ccccc1)N(Cc1ccc2c(c1)Nc1nccnc1S2)c1cccnc1', 'melting point', '178 to 182 °C'),
  ('CNS(=O)(=O)NC1CCN(Cc2ccc3c(c2)Nc2ncccc2S3)CC1', 'melting point', '216 to 218 °C');

# credit: patent US6518423B1
